- studySystem: HLA-A*68:02
- testSummary: IEDB peptide-MHC binding, purified MHC/direct/fluorescence; filed as Kd, often an IC50 or EC50 that approximates it; bounds were set here for any values at or beyond the usual limits of such assays
- conditionSet: source organism: Shigella sonnei Ss046
quantityKind: Kd

Using the record for VLDMGDPVK , report its Kd.
≥ 20 µM

* * *

- studySystem: HLA-B*18:01
- testSummary: IEDB peptide-MHC binding, purified MHC/direct/fluorescence; filed as Kd, often an IC50 or EC50 that approximates it; bounds were set here for any values at or beyond the usual limits of such assays
- conditionSet: source organism: Bacillus anthracis str. A0488
quantityKind: Kd

// lookup Kd for WDAYIPHYV
≥ 20 µM

* * *

- studySystem: HLA-A*01:01
- testSummary: IEDB peptide-MHC binding, purified MHC/competitive/fluorescence; filed as Kd, often an IC50 or EC50 that approximates it; bounds were set here for any values at or beyond the usual limits of such assays
- conditionSet: source organism: Giardia lamblia ATCC 50803
quantityKind: Kd
The number alone won't do; follow it with the unit.

I have this sequence here, KSNRIPFLY , and I need its recorded Kd.
202 nM

* * *

- studySystem: HLA-A*02:01
- testSummary: IEDB peptide-MHC binding, purified MHC/competitive/fluorescence; bounds were set here for any values at or beyond the usual limits of such assays
- conditionSet: source organism: Human alphaherpesvirus 1 strain 17
quantityKind: pIC50
Notebook: values listed as pIC50 are -log10 of the concentration (mol/L).

Recorded pIC50 for LMHAPAFET , please?
5.70

* * *

- studySystem: HLA-B*57:01
- testSummary: IEDB peptide-MHC binding, purified MHC/competitive/radioactivity; filed as Kd, often an IC50 or EC50 that approximates it; bounds were set here for any values at or beyond the usual limits of such assays
- conditionSet: source organism: Dengue virus 4 Dominica/814669/1981
quantityKind: pKd
Keep in mind that pKd stands for -log10 of concentration in molar terms.

For the sequence TTRLENVMW , what pKd is on record?
7.84

* * *

- studySystem: HLA-A*02:01
- testSummary: IEDB peptide-MHC binding, purified MHC/direct/fluorescence; filed as Kd, often an IC50 or EC50 that approximates it; bounds were set here for any values at or beyond the usual limits of such assays
- conditionSet: source organism: Influenza A virus (A/Puerto Rico/8/34/Mount Sinai(H1N1))
quantityKind: pKd
Just the number, please; pKd means minus log10 of the concentration in mol/L.

Recorded pKd of GMDPRMCSL , please.
6.41

* * *

- studySystem: HLA-B*15:01
- testSummary: IEDB peptide-MHC binding, purified MHC/direct/fluorescence; filed as Kd, often an IC50 or EC50 that approximates it; bounds were set here for any values at or beyond the usual limits of such assays
- conditionSet: source organism: Yellow fever virus
quantityKind: Kd

Observed Kd on HLA-B*15:01 for TKDTNDNNL , please.
≥ 20 µM

* * *

- studySystem: HLA-A*02:02
- testSummary: IEDB peptide-MHC binding, purified MHC/competitive/radioactivity; filed as Kd, often an IC50 or EC50 that approximates it; bounds were set here for any values at or beyond the usual limits of such assays
- conditionSet: source organism: Mammarenavirus juninense
quantityKind: Kd

Quick one: Kd for YNFSLSAAV ?
≥ 46.2 µM

* * *

- studySystem: HLA-B*15:17
- testSummary: IEDB peptide-MHC binding, purified MHC/direct/fluorescence; filed as Kd, often an IC50 or EC50 that approximates it; bounds were set here for any values at or beyond the usual limits of such assays
- conditionSet: source organism: Lake Victoria marburgvirus - Popp
quantityKind: Kd

Tell me the measured Kd of GELRKAICL , please.
≥ 20 µM

* * *

- studySystem: HLA-B*27:05
- testSummary: IEDB peptide-MHC binding, purified MHC/direct/fluorescence; filed as Kd, often an IC50 or EC50 that approximates it; bounds were set here for any values at or beyond the usual limits of such assays
- conditionSet: source organism: Vibrio vulnificus YJ016
quantityKind: pKd
Remember the convention: pKd equals -log10 of concentration in molar.

Entry under review: KRFYQTVGF . Reported pKd?
7.05

* * *

- studySystem: HLA-B*40:01
- testSummary: IEDB peptide-MHC binding, purified MHC/direct/fluorescence; filed as Kd, often an IC50 or EC50 that approximates it; bounds were set here for any values at or beyond the usual limits of such assays
- conditionSet: source organism: Escherichia coli O157:H7
quantityKind: Kd

Please give the measured Kd for this sequence: PSSKPDWFY
≥ 20 µM

* * *

- studySystem: HLA-A*02:01
- testSummary: IEDB peptide-MHC binding, purified MHC/competitive/radioactivity; filed as Kd, often an IC50 or EC50 that approximates it; bounds were set here for any values at or beyond the usual limits of such assays
- conditionSet: source organism: Hepatitis B virus subtype ayw
quantityKind: Kd

Observed Kd on HLA-A*02:01 for RLGLSRPLL , please.
≥ 5 µM

* * *

- studySystem: HLA-B*53:01
- testSummary: IEDB peptide-MHC binding, purified MHC/competitive/fluorescence; bounds were set here for any values at or beyond the usual limits of such assays
- conditionSet: source organism: Monodelphis domestica
pIC50: −log10 of the molar value.
quantityKind: pIC50

Looking for the measured pIC50 of LEYFQFVKKLL , can you help?
≤ 4.70

* * *

- studySystem: HLA-B*46:01
- testSummary: IEDB peptide-MHC binding, purified MHC/competitive/fluorescence; filed as Kd, often an IC50 or EC50 that approximates it; bounds were set here for any values at or beyond the usual limits of such assays
- conditionSet: source organism: Vibrio antiquarius
pKd: −log10 of the molar value.
quantityKind: pKd

Look at this sequence and give its reported pKd. FDLFGITLY
≤ 4.70

* * *

- studySystem: HLA-A*01:01
- testSummary: IEDB peptide-MHC binding, purified MHC/direct/fluorescence; filed as Kd, often an IC50 or EC50 that approximates it; bounds were set here for any values at or beyond the usual limits of such assays
- conditionSet: source organism: Influenza A virus (A/Duck/Shantou/1881/00(H9N2))
quantityKind: Kd

Entry SLPPNFSSL : reported Kd = ?
≥ 20 µM

* * *

- studySystem: HLA-A*30:01
- testSummary: IEDB peptide-MHC binding, purified MHC/competitive/fluorescence; filed as Kd, often an IC50 or EC50 that approximates it; bounds were set here for any values at or beyond the usual limits of such assays
- conditionSet: source organism: Human immunodeficiency virus 1
quantityKind: Kd

Report Kd for RSLYNTIAVLY please.
1910 nM

* * *

- studySystem: HLA-A*02:01
- testSummary: IEDB peptide-MHC binding, purified MHC/competitive/radioactivity; filed as Kd, often an IC50 or EC50 that approximates it; bounds were set here for any values at or beyond the usual limits of such assays
- conditionSet: source organism: Dengue virus 3 Martinique/1243/1999
quantityKind: Kd (nM)
Give your result in nM as a bare value.

Quick one: Kd for MLWMAEIPL ?
4.11

* * *

- studySystem: HLA-A*02:02
- testSummary: IEDB peptide-MHC binding, purified MHC/competitive/radioactivity; filed as Kd, often an IC50 or EC50 that approximates it; bounds were set here for any values at or beyond the usual limits of such assays
- conditionSet: source organism: Variola virus
quantityKind: Kd (nM)
Supply the numeric figure in nM, leaving out any unit text.

Find the measured Kd: item MILVPLITV , target or system HLA-A*02:02.
138

* * *

- studySystem: HLA-A*03:01
- testSummary: IEDB peptide-MHC binding, purified MHC/competitive/radioactivity; filed as Kd, often an IC50 or EC50 that approximates it; bounds were set here for any values at or beyond the usual limits of such assays
- conditionSet: source organism: Vaccinia virus WR
Reported values of pKd for individual entries
# pKd is unitless: minus log10 of the molar concentration; print number only

Please report the recorded pKd for FMLIFNVKSK .
6.68

* * *

- studySystem: HLA-A*24:02
- testSummary: IEDB peptide-MHC binding, purified MHC/competitive/radioactivity; filed as Kd, often an IC50 or EC50 that approximates it; bounds were set here for any values at or beyond the usual limits of such assays
- conditionSet: source organism: SARS coronavirus Tor2
Kd overview

Please review the following examples before continuing.
1) FTERSDKSY : ≥ 77.6 µM
2) YYFMKFRRVF : 0.00392 µM
3) LKEPCPSGTY : ≥ 70.3 µM
4) NMLRIMASL : ≥ 32.2 µM
5) LFCLLNRYF : ≥ 77.6 µM

Please look at the following sequence next.
Entry NTCDGNTFTY : reported Kd = ?
5.75 µM

* * *

- studySystem: HLA-A*24:02
- testSummary: IEDB peptide-MHC binding, purified MHC/competitive/fluorescence; filed as Kd, often an IC50 or EC50 that approximates it; bounds were set here for any values at or beyond the usual limits of such assays
- conditionSet: source organism: Salmonella enterica subsp. enterica serovar Typhi str. CT18
pKd: −log10 of the molar value.
quantityKind: pKd

Quick one: pKd of IYASRPLDF ?
≥ 10.00

Measured values drawn from the Immune Epitope Database (IEDB) for this set.
